System: Trachea
Experiment: Inhibition of KCl-induced contraction in Sprague-Dawley rat trachea assessed as tracheal tension at 10^-9 mol/L (reference value: 2.16 to 2.59 g)
Format: functional
ASSAY_METRIC: Activity (g)
Respond numerically; units are g and should not be typed.

>>> reading("C[C@@H]1CC[C@H]2N(C1)C[C@H]1[C@@H]3C[C@H]4[C@@H](CC(=O)[C@H]5C[C@@H](O)CC[C@@]54C)[C@@H]3CC[C@@H]1[C@]2(C)O")
2.43

Continue with the next molecule.
Inquiry: Find the recorded Activity belonging to `C[C@H]1CC[C@H]2[C@@H](C)[C@H]3CC[C@@H]4[C@@H](C[C@H]5[C@H]4CC(=O)[C@H]4C[C@@H](O)CC[C@@]45C)[C@@H]3CN2C1` and report it.
Reply text: 2.16

---

Below, each entry is listed with its recorded Activity.
Tested on: Trachea
Assay: Inhibition of KCl-induced contraction in Sprague-Dawley rat trachea assessed as tracheal tension at 10^-5 mol/L (reference value: 2.16 to 2.59 g)
Format: functional
Hi! Could you send only the number? It should be in g, unit omitted.

Here are 3 compounds together with their reported answers.
>>> reading("C[C@H]1CC[C@@H]2N(C1)C[C@H]1[C@@H]3C[C@H]4[C@@H](CC(=O)[C@H]5C[C@@H](O[C@@H]6O[C@H](CO)[C@@H](O)[C@H](O)[C@H]6O)CC[C@@]54C)[C@@H]3CC[C@H]1[C@]2(C)O")
2.47
>>> reading("C[C@@H]1CC[C@H]2N(C1)C[C@H]1[C@@H]3C[C@H]4[C@@H](CC(=O)[C@H]5C[C@@H](O)CC[C@@]54C)[C@@H]3CC[C@@H]1[C@]2(C)O")
2.49
>>> reading("C[C@H]1CC[C@H]2N(C1)C[C@H]1[C@@H]3C[C@H]4[C@@H](CC(=O)[C@H]5C[C@@H](O[C@@H]6O[C@H](CO)[C@@H](O)[C@H](O)[C@H]6O)CC[C@@]54C)[C@@H]3CC[C@@H]1[C@@]2(C)O")
2.37

Inquiry: Entry `C[C@H]1CC[C@H]2[C@@H](C)[C@H]3CC[C@@H]4[C@@H](C[C@H]5[C@H]4CC(=O)[C@H]4C[C@@H](O)CC[C@@]45C)[C@@H]3CN2C1` , system Trachea: what Activity was measured?
Reply text: 2.2

---

Tested on: Trachea
Assay: Inhibition of Ach-induced contraction in Sprague-Dawley rat trachea assessed as maximal diastolic rate at 10^-7 mol/L (reference value: 14.2 +/- 2.3%)
Assay type: functional
Parameters: scale not given: the % may be the effect or the level left
Rule: Activity below 20% gives Fulfilled, anything at or above gives Not fulfilled.

>>> label_class("C[C@H]1CC[C@H]2[C@@](C)(O)[C@@H]3CC[C@@H]4[C@@H](C[C@H]5[C@H]4CC(=O)[C@H]4C[C@@H](O)CC[C@@]45C)[C@@H]3C[N+]2([O-])C1 (stereo partly drawn)")
"Not fulfilled"
>>> label_class("C[C@H]1CC[C@@H]2N(C1)C[C@H]1[C@@H]3C[C@H]4[C@@H](CC(=O)[C@H]5C[C@@H](O)CC[C@@]54C)[C@@H]3CC[C@H]1[C@]2(C)O")
"Not fulfilled"

Inquiry: API: query returns whether the molecule falls strictly under 20% in Activity. Query: `C[C@H]1CC[C@H]2[C@@H](C)[C@H]3CC[C@@H]4[C@@H](C[C@H]5[C@H]4CC(=O)[C@H]4C[C@@H](O)CC[C@@]45C)[C@@H]3CN2C1`
Reply text: Fulfilled

Inquiry: Activity under 20%? Item: `C[C@@H]1CN[C@H]2[C@@H](C)[C@@]3(CC[C@]4(O)[C@@H]5CC(=O)[C@H]6C[C@@H](O)CC[C@]6(C)[C@H]5C[C@]45O[C@]53C)O[C@@H]2C1`
Reply text: Not fulfilled

Inquiry: Just wondering, is Activity of `C[C@H]1CC[C@@H]2N(C1)C[C@H]1[C@@H]3C[C@H]4[C@@H](CC(=O)[C@H]5C[C@@H](O[C@@H]6O[C@H](CO)[C@@H](O)[C@H](O)[C@H]6O)CC[C@@]54C)[C@@H]3CC[C@H]1[C@]2(C)O` below 20%?
Reply text: Fulfilled

Inquiry: Problem: For the molecule `C[C@@H]1CC[C@H]2N(C1)C[C@H]1[C@@H]3C[C@H]4[C@@H](CC(=O)[C@H]5C[C@@H](O)CC[C@@]54C)[C@@H]3CC[C@@H]1[C@]2(C)O` , is Activity under 20%?
Reply text: Not fulfilled

Inquiry: Dear reviewer, please state whether `C[C@H]1CC[C@H]2N(C1)C[C@H]1[C@@H]3C[C@H]4[C@@H](CC(=O)[C@H]5C[C@@H](O[C@@H]6O[C@H](CO)[C@@H](O)[C@H](O)[C@H]6O)CC[C@@]54C)[C@@H]3CC[C@@H]1[C@@]2(C)O` has Activity strictly beneath 20%.
Reply text: Fulfilled

Inquiry: Here's an entry: `Cc1c([C@H](C)[C@@H]2NC[C@@H](C)C[C@H]2O)ccc2c1C[C@H]1[C@H]2CC(=O)[C@H]2C[C@@H](O)CC[C@@]21C` . Is its Activity below 20%?
Reply text: Fulfilled
